# Test system: KM12 colon
# method: NCI tumour cell line growth inhibition, 48 h

{"columns": ["molecule", "TGI"],
 "data": [
  ["COC(=O)[C@H](Cc1cn(C)cn1)NC(=O)[C@H](Cc1ccccc1)NC(=O)Nc1cc(C(F)(F)F)cc(C(F)(F)F)c1", "28.2 µM"],
  ["C=C1C(=O)O[C@H]2C[C@@H]1C(=O)CC(C)CCCC(C)=CCC[C@@]2(C)O (some centres not stated)", "> 25 µM"],
  ["CC(C)(C)c1ccnc(N=C2N=C(Nc3cc(C(C)(C)C)ccn3)c3ccccc32)c1", "> 100 µM"],
  ["CS(=O)(=O)Nc1ccc2ccccc2c1", "> 100 µM"],
  ["CCOC(=O)C(NC(=O)c1cccc(Cl)c1)(Nc1cccc(C)c1)C(F)(F)F (configuration not stated)", "30.1 µM"],
  ["CSc1nc(=O)c2nc(-c3cccs3)c(-c3cccs3)nc2n1C", "> 100 µM"],
  ["COc1ccc([C@]23CCC4(OCC(C)(C)CO4)[C@H]4CON(O[C@H](O[C@@H]5CCCCC5C(C)(C)c5ccccc5)C2)[C@@H]43)cc1OC (some centres not stated)", "> 100 µM"],
  ["CCn1c(-c2nonc2N)nc2c(N3CCCC3)nccc21", "> 25 µM"],
  ["C=C1CCC2C3(C)COC(c4ccccc4Cl)OC3CCC2(C)C1/C=C/C1=CCOC1=O (configuration not stated)", "> 100 µM"],
  ["COC(=O)N/N=C(\\C)CC(=O)Nc1ccc(Cl)cc1", "> 100 µM"],
  ["O=C(O)c1ccc(SSc2ccc(C(=O)O)cn2)nc1", "> 100 µM"],
  ["CCOC(=O)c1c(SCc2cc(=O)[nH]c(=O)[nH]2)n(-c2ccccc2)c(=S)n(-c2ccccc2)c1=O", "> 100 µM"]
]}

====

# Tested on: SNB-19 CNS
# method: NCI tumour cell line growth inhibition, 48 h

{"columns": ["compound", "TGI"],
 "data": [
  ["CCN(Cc1c(F)cccc1Cl)c1ccc(CO)c(Cl)c1", "40.1 µM"],
  ["CCOC(=O)c1c(-c2ccccc2)c(OC)cn1C", "> 10 µM"],
  ["CSc1ccc(/C=C2\\N=C(c3ccccc3)N(c3nc4cc(Cl)c(F)cc4s3)C2=O)cc1", "76.6 µM"],
  ["COC(=O)C1CCc2nnc(-c3ccccc3)n21 (configuration not stated)", "> 100 µM"],
  ["O=C1Nc2cc(F)ccc2C1=O", "> 100 µM"],
  ["CC(C)(C)N=NC(C)(C)N=C=O", "> 100 µM"],
  ["COc1cc2c(c(OC)c1)[C@H](C)N(Cc1ccccc1)C(C)C2 (some centres not stated)", "> 100 µM"]
]}

====

# Test system: PC-3 prostate
# method: NCI tumour cell line growth inhibition, 48 h
endpointLabel: TGI

{"columns": ["compound", "testedSystem", "endpointLabel", "endpointResult"],
 "data": [
  ["CCOC(=O)c1c(SCc2cc(=O)[nH]c(=O)[nH]2)n(-c2ccccc2)c(=S)n(-c2ccccc2)c1=O", "PC-3 prostate", "TGI", "> 100 µM"],
  ["O=C([C@H](O)[C@@H](O)c1cccc(Cl)c1)C12CC3CC(CC(C3)C1)C2", "PC-3 prostate", "TGI", "4.05 µM"],
  ["OC(CC(O)(C(F)(F)Cl)C(F)(F)Cl)c1ccccc1 (centres undefined)", "PC-3 prostate", "TGI", "> 10 µM"],
  ["COc1ccc([C@]23CCC4(OCC(C)(C)CO4)[C@H]4CON(O[C@H](O[C@@H]5CCCCC5C(C)(C)c5ccccc5)C2)[C@@H]43)cc1OC (some centres undefined)", "PC-3 prostate", "TGI", "> 100 µM"]
]}
